- TARGET_ENTITY: human B7H3 ECD-His (human) (UniProt Q5ZPR3)
- MEASUREMENT_NOTES: ForteBio BLI, antibody on AHQ sensor, 60 nM antigen, 1:1 model
QUANTITY_NAME: pKd
A value of pKd is the negative decimal logarithm of a concentration given in moles per litre.

Some solved entries appear below for comparison.
anti-B7H3 antibody 23H1 (antibody, V domains shown) VH: EVKLVESGGGLVQPGGSLRLSCATSGFTFTDYYMSWVRQPPGKALEWLGFIRNKVNDYTTEYSVSVKGRFTISRDNSQTILYLQMNTLRAEDSATYYCARDSPYRPFAYWGQGTLVTVSA VL: DIVMTQSPSSLTVTAGENVTMSCKSSQTLLNNGNQKNFLTWYQQKPGQPPKLLIYLASTRESGVPDRFTGSGSGTDFTLTISSVQAEDLAVYYCQNDYTYPLTFGAGTKLELKR: 9.16
anti-B7H3 antibody 6F7 (antibody, V domains shown) VH: EVKLVESGGGLVQPGGSLRLSCATSGFTFTDYYMSWVRQPPGKALEWLGFIRNKANGYTTEYSASVKGRFTISSDDSQSILYLQMNTLRAEDSATYYCARDSHYRPFAYWGQGTLVTVSA VL: DIQMTQSPSSLTVTAGEKVTMSCKSSQSLLNSGNQNNYLTWYQQKPGQPPKLLIYLASTRDSGVPDRFTGSGSGTDFTLTISSVQAEDLAVYYCQNDYTYPLTFGAGTKLELKR: 9.27

Next binder, pKd to be filled in.
Q. Item under review: anti-B7H3 antibody 26B6 (antibody, V domains shown) VH: EVQLQQSGPELVKPGASVKISCKTSGYAFTEYTMHWVKQSQGKSLEWIGGINPNTGGTTYNQKFNGKATLTVDRSSSTAYMELRSLTSEDSAVYYCTRPYRDDGGFHWYFDVWGAGTAVTVSS VL: QIVLTQSPAVMSTSPGEKVTMTCSASSSVSYMQWYQQKSGTSPKRWIYDTSKLTSGVPARFSGSGSGTSYSLTISSMEAEDAATYYCQQWSSNPLTFGAGTKLELKR . Reported pKd?
A. 9.36
